- tgt: T1, TPP-599 (HUMAN-TNFRSF12Aaa28-80-hIgG1-Fc) (human, biotinylated with Biotin-LC-NHS (about 2-fold molar excess))
- T1 construct: Dimeric Fc-fused extracellular domain of human TWEAKR, used biotinylated in the panning and the Fab ELISA; also called TWEAKR Fc; TWEAKR-Fc
- assayProcedure: ELISA, soluble Fab on 2.5 nM biotinylated TWEAKR-Fc, anti-c-myc detection
- Description: Affinity maturation was carried out by phage panning. Washed magnetic beads (DynaBeads) were incubated at 4° C. with 10 nM, 1 nM, 100 pM and 10 pM of biotinylated human antigen overnight and blocked with blocking buffer (PBS with 3% BSA, 0.05% Tween-20) at 4° C. for 1 h. […] 96 variants of each of the 12 selection pools were expressed as soluble Fabs and examined in an ELISA format. […]
measuredParameter: binding result

{"columns": ["binder", "observed"],
 "data": [
  ["TPP-883 single-substitution variant G97F of CDR-L3 (soluble Fab) (Fab, V domains shown, Soluble Fab) VH: EVQLLESGGGLVQPGGSLRLSCAASGFTFSPYPMMWVRQAPGKGLEWVSYISPSGGKTHYADSVKGRFTISRDNSKNTLYLQMNSLRAEDTAVYYCARGGDGYFDYFDYWGQGTLVTVSS VL: DIQMTQSPATLSASVGDRVTITCRASQSISSYLNWYQQKPGKAPKLLIYAASSLQSGVPSRFSGSGSGTDFTLTISSLQPEDFATYYCQQSYSSPFITFGPGTKVEIK", "binds"],
  ["TPP-883 single-substitution variant A51Q of CDR-L2 (soluble Fab) (Fab, V domains shown, Soluble Fab) VH: EVQLLESGGGLVQPGGSLRLSCAASGFTFSPYPMMWVRQAPGKGLEWVSYISPSGGKTHYADSVKGRFTISRDNSKNTLYLQMNSLRAEDTAVYYCARGGDGYFDYFDYWGQGTLVTVSS VL: DIQMTQSPATLSASVGDRVTITCRASQSISSYLNWYQQKPGKAPKLLIYQASSLQSGVPSRFSGSGSGTDFTLTISSLQPEDFATYYCQQSYSSPGITFGPGTKVEIK", "binds"],
  ["TPP-883 single-substitution variant M35I of CDR-H1 (soluble Fab) (Fab, V domains shown, Soluble Fab; also called M351) VH: EVQLLESGGGLVQPGGSLRLSCAASGFTFSPYPMIWVRQAPGKGLEWVSYISPSGGKTHYADSVKGRFTISRDNSKNTLYLQMNSLRAEDTAVYYCARGGDGYFDYFDYWGQGTLVTVSS VL: DIQMTQSPATLSASVGDRVTITCRASQSISSYLNWYQQKPGKAPKLLIYAASSLQSGVPSRFSGSGSGTDFTLTISSLQPEDFATYYCQQSYSSPGITFGPGTKVEIK", "binds"]
]}
